Test system: rabbit aorta strips
experimentDescription: Vasoconstrictory effect in rabbit aorta strips at low depolarizing conditions (10 mM K+)
Assay type: cell-based
conditionDescription: Oryctolagus cuniculus; rabbit aorta strips predepolarized with 10 mM K+
readoutType: EC50 (nM)

compound	valueObserved
CC1=C(C(=O)OCN2C(=O)c3ccccc3S2(=O)=O)C(c2cccc([N+](=O)[O-])c2)C(C(=O)OC(C)(C)C)=C(C)N1 (centres unmarked) [Example 53]	9.3
COC(=O)C1=C(C)NC(C)=C([N+](=O)[O-])C1c1ccccc1C(F)(F)F (centres unmarked) [BayK-8644, reference compound]	13

Hey, just so you know, these numbers are from patent US5691361A.
